Test: AUC (0 to 24 hrs) in Sprague-Dawley rat at 0.03 mg/kg, po qd administered via gavage measured on day 11 by LC-MS/MS analysis
Assay type: ADME, organism-based
Design: time < 24 hr, dose 0.03 mg/kg, route oral
Conditions: in vivo
test_readout: AUC at 24 h (µM·h)

1. O=C(O)c1cc(F)c2nc(N3C4CCC3CC(OCc3c(-c5ccccc5OC(F)(F)F)noc3C3CC3)C4)sc2c1 (stereo unspecified) ... 0.02

###

Experiment: Extraction ratio in human liver microsomes
Format: ADME, microsome
Details: read-out: ERH
test_readout: hepatic extraction ratio

1. O=C(O)c1cc(F)c2nc(N3C4CCC3CC(OCc3c(-c5ccccc5C(F)(F)F)noc3C3CC3)C4)sc2c1 (stereo not given) ... 0.36
2. O=C(O)c1ccc2nc(N3CCC(OCc4c(-c5c(F)cccc5F)noc4C4CC4)CC3)sc2c1 ... 0.27
3. O=C(O)c1cc(F)c2nc(N3C4CCC3CC(OCc3c(-c5ccccc5OC(F)F)noc3C3CC3)C4)sc2c1 (stereo not given) ... 0.61
4. O=C(O)c1ccc2nc(N3CCC(OCc4c(-c5ccccc5C(F)(F)F)noc4C4CC4)CC3)sc2c1 ... 0.38

###

Experiment: Drug uptake in Sprague-Dawley rat plasma at 3 mg/kg, po qd administered via gavage measured 1 hr post last dose on day 14 by LC-MS/MS analysis
Type: ADME, organism-based
test_readout: concentration at 1 h

1. O=C(O)c1cc(F)c2nc(N3C4CCC3CC(OCc3c(-c5ccccc5OC(F)(F)F)noc3C3CC3)C4)sc2c1 (stereo unspecified) ... 62.6 nM

###

Assay: Oral bioavailability in mouse at 10 mg/kg administered via gavage by LC-MS/MS analysis
Type: ADME, organism-based
Settings: in vivo
test_readout: bioavailability (%)

1. O=C(O)c1cc(F)c2nc(N3C4CCC3CC(OCc3c(-c5ccccc5OC(F)(F)F)noc3C3CC3)C4)sc2c1 (stereo unspecified) ... 9.2

###

Test: Clearance in mouse at 5 mg/kg, iv by LC-MS/MS analysis
Type: ADME, organism-based
Conditions: in vivo
test_readout: clearance (mL/min/kg)

1. O=C(O)c1cc(F)c2nc(N3C4CCC3CC(OCc3c(-c5ccccc5OC(F)(F)F)noc3C3CC3)C4)sc2c1 (stereo unspecified) ... 5.3

###

Assay: Oral bioavailability in dog at 2 mg/kg administered via gavage by LC-MS/MS analysis
Format: ADME, organism-based, Canis lupus familiaris
Settings: in vivo
test_readout: bioavailability

1. O=C(O)c1cc(F)c2nc(N3C4CCC3CC(OCc3c(-c5ccccc5OC(F)(F)F)noc3C3CC3)C4)sc2c1 (stereo unspecified) ... 10%

###

Assay: Drug uptake in Sprague-Dawley rat plasma at 0.03 mg/kg, po qd administered via gavage measured 7 hrs post last dose on day 14 by LC-MS/MS analysis
Assay type: ADME, organism-based
test_readout: concentration at 7 h (nM)

1. O=C(O)c1cc(F)c2nc(N3C4CCC3CC(OCc3c(-c5ccccc5OC(F)(F)F)noc3C3CC3)C4)sc2c1 (stereo unspecified) ... 1.16

###

Experiment: Drug uptake in Sprague-Dawley rat plasma at 0.3 mg/kg, po qd administered via gavage measured 1 hr post last dose on day 14 by LC-MS/MS analysis
Assay type: ADME, organism-based
test_readout: concentration at 1 h (nM)

1. O=C(O)c1cc(F)c2nc(N3C4CCC3CC(OCc3c(-c5ccccc5OC(F)(F)F)noc3C3CC3)C4)sc2c1 (stereo unspecified) ... 6.84

###

Assay: Cmax in Sprague-Dawley rat at 1 mg/kg, po qd administered via gavage measured on day 1 by LC-MS/MS analysis
Format: ADME, organism-based
Design: dose 1 mg/kg, route oral
Settings: in vivo
test_readout: Cmax (nM)

1) O=C(O)c1cc(F)c2nc(N3C4CCC3CC(OCc3c(-c5ccccc5OC(F)(F)F)noc3C3CC3)C4)sc2c1 (stereo unspecified) ... 39.3

###

Assay: Dissociation constant, pKa of compound
Type: physicochemical
test_readout: pKa

1) O=C(O)c1cc(F)c2nc(N3C4CCC3CC(OCc3c(-c5ccccc5OC(F)(F)F)noc3C3CC3)C4)sc2c1 (stereo unspecified) ... 4
2) Cc1cc(C(=O)O)cc2sc(N3C4CCC3CC(OCc3c(-c5ccccc5OC(F)(F)F)noc3C3CC3)C4)nc12 (stereo unspecified) ... 5.5
3) O=C(O)c1ccc2nc(N3C4CCC3CC(OCc3c(-c5ccccc5OC(F)(F)F)noc3C3CC3)C4)sc2c1 (stereo unspecified) ... 5.1
4) O=C(O)c1cc(F)c2nc(N3C4CCC3CC(OCc3c(-c5ccccc5OC(F)F)noc3C3CC3)C4)sc2c1 (stereo unspecified) ... 4
5) O=C(O)c1cc(F)c2nc(N3C4CCC3CC(OCc3c(-c5ccccc5C(F)(F)F)noc3C3CC3)C4)sc2c1 (stereo unspecified) ... 4
6) COc1cc(C(=O)O)cc2sc(N3C4CCC3CC(OCc3c(-c5ccccc5OC(F)(F)F)noc3C3CC3)C4)nc12 (stereo unspecified) ... 4.5

###

In this section, each of the molecules is paired with its reported bioavailability.
Assay: Oral bioavailability in rat at 10 mg/kg administered via gavage by LC-MS/MS analysis
Format: ADME, organism-based
Conditions: in vivo
test_readout: bioavailability (%)

1. COc1cc(C(=O)O)cc2sc(N3C4CCC3CC(OCc3c(-c5ccccc5OC(F)(F)F)noc3C3CC3)C4)nc12 (centres undefined) ... 9
2. O=C(O)c1ccc2nc(N3C4CCC3CC(OCc3c(-c5ccccc5OC(F)(F)F)noc3C3CC3)C4)sc2c1 (centres undefined) ... 11
3. O=C(O)c1cc(F)c2nc(N3C4CCC3CC(OCc3c(-c5ccccc5OC(F)(F)F)noc3C3CC3)C4)sc2c1 (centres undefined) ... 20
4. O=C(O)c1cc(F)c2nc(N3C4CCC3CC(OCc3c(-c5ccccc5OC(F)F)noc3C3CC3)C4)sc2c1 (centres undefined) ... 14

###

Target: Bile acid receptor (Homo sapiens)
Sequence (Q96RI1 whole entry, the tested form may be a part): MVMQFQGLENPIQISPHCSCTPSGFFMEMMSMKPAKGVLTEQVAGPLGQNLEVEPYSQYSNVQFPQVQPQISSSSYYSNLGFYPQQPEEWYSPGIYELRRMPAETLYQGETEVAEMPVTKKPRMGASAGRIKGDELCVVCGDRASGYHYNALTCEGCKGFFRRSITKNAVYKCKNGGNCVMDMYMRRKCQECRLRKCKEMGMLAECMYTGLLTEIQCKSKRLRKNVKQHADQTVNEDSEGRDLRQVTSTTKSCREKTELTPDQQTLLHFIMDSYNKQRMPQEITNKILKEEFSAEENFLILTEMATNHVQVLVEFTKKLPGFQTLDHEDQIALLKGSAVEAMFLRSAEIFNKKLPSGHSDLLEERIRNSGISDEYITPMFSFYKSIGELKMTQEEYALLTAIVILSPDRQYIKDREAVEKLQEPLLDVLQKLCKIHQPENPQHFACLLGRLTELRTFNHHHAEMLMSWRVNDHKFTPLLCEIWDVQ
Test: Agonist activity at recombinant human GST-tagged FXR ligand binding domain (193 to 472 residues) expressed in baculovirus infected insect cells assessed as induction of interaction with biotin labelled SRC-1 after 1 hr by HTRF assay
Could you mark each record Condition met if its EC50 falls strictly under 8 nM, and Condition not met if it equals or exceeds it?

1. O=C(O)c1ccc2nc(N3CCC(OCc4c(-c5c(Cl)cccc5Cl)noc4C4CC4)CC3)sc2c1 ... Condition not met
2. O=C(O)c1ccc2nc(N3C4CCC3CC(OCc3c(-c5ccccc5OC(F)(F)F)noc3C3CC3)C4)sc2c1 (stereo not drawn) ... Condition met
3. COc1cc(C(=O)O)cc2sc(N3C4CCC3CC(OCc3c(-c5ccccc5OC(F)(F)F)noc3C3CC3)C4)nc12 (stereo not drawn) ... Condition met
4. O=C(O)c1ccc2nc(N3CCCC(OCc4c(-c5ccccc5OC(F)(F)F)noc4C4CC4)CC3)sc2c1 (stereo not drawn) ... Condition met
5. O=C(O)c1cc(F)c2nc(N3C4CCC3CC(OCc3c(-c5ccccc5C(F)(F)F)noc3C3CC3)C4)sc2c1 (stereo not drawn) ... Condition met
6. O=C(O)c1ccc2nc(N3CC[C@@H](OCc4c(-c5c(Cl)cccc5Cl)noc4C4CC4)C3)sc2c1 ... Condition not met
7. Cc1cc(C(=O)O)cc2sc(N3C4CCC3CC(OCc3c(-c5ccccc5OC(F)(F)F)noc3C3CC3)C4)nc12 (stereo not drawn) ... Condition met
8. O=C(O)c1ccc2nc(N3CCC(OCc4c(-c5ccccc5C(F)(F)F)noc4C4CC4)CC3)sc2c1 ... Condition not met

###

In this section, each of the compounds is paired with its reported hepatic extraction ratio.
Experiment: Extraction ratio in rat liver microsomes
Type: ADME, microsome
Conditions: read-out: ERH
test_readout: hepatic extraction ratio

1. O=C(O)c1ccc2nc(N3C4CCC3CC(OCc3c(-c5ccccc5OC(F)(F)F)noc3C3CC3)C4)sc2c1 (stereo not drawn) ... 0.51
2. O=C(O)c1ccc2nc(N3CCC(OCc4c(-c5ccccc5C(F)(F)F)noc4C4CC4)CC3)sc2c1 ... 0.5
3. COc1cc(C(=O)O)cc2sc(N3C4CCC3CC(OCc3c(-c5ccccc5OC(F)(F)F)noc3C3CC3)C4)nc12 (stereo not drawn) ... 0.5
